IC50 values for the compounds below.
Tested on: GM1 production in Jurkat cells
Method Description: cells
Assay type: cell-based
Measurement Setup: Homo sapiens, Jurkat, 72 h

Compound: CC1(C)COc2cc(-c3ccc(C4CC4)cc3)ccc2C1NC(=O)O[C@@H]1CN2CCC1CC2 (some centres unmarked) [Example 161]
IC50 / nM: 0.18
--
Compound: CC1(C)COc2cc(-c3cccc4cc[nH]c34)ccc2C1NC(=O)O[C@@H]1CN2CCC1CC2 (some centres unmarked) [Example 173]
IC50 / nM: 2.95
--
Compound: COc1ncc(-c2ccc3c(c2)OCCC3NC(=O)O[C@@H]2CN3CCC2CC3)cc1C(F)(F)F (some centres unmarked) [Example 71]
IC50 / nM: 38.8
--
Compound: CC1(C)COc2cc(-c3cc(Cl)ccc3Cl)ccc2C1NC(=O)O[C@@H]1CN2CCC1CC2 (some centres unmarked) [Example 150]
IC50 / nM: 0.4
--
Compound: CC(C)(C)c1cccc(-c2ccc3c(c2)OCCC3NC(=O)O[C@@H]2CN3CCC2CC3)c1 (some centres unmarked) [Example 25]
IC50 / nM: 1.07
--
Compound: CC1(C)COc2cc(-c3ccc(F)nc3F)ccc2C1NC(=O)O[C@@H]1CN2CCC1CC2 (some centres unmarked) [Example 278]
IC50 / nM: 12.4
--
Compound: O=C(NC1CCOc2ccc(-c3ccc(C(F)(F)F)cc3)cc21)O[C@@H]1CN2CCC1CC2 (some centres unmarked) [Example 91]
IC50 / nM: 171
--
Compound: COc1cncc(-c2ccc3c(c2)OCCC3NC(=O)O[C@@H]2CN3CCC2CC3)c1 (some centres unmarked) [Example 79]
IC50 / nM: 33.4

---

System: GM1 production in Jurkat cells
Method Description: cells
Assay type: cell-based
Measurement Setup: Homo sapiens, Jurkat, 72 h
Under this convention, Criterion met denotes IC50 strictly below 3 nM and Criterion not met denotes IC50 at or above 3 nM.

Molecule: CCOc1cccc(-c2ccc3c(c2)SCCC3NC(=O)O[C@@H]2CN3CCC2CC3)c1 (some centres unmarked)
Label: Criterion not met

Molecule: CC1(C)COc2cc(-c3ccc(OCC(F)(F)F)nc3)ccc2C1NC(=O)O[C@@H]1CN2CCC1CC2 (some centres unmarked)
Label: Criterion met

Molecule: CC1(C)COc2cc(-c3cc(OC(F)(F)F)ccc3Cl)ccc2C1NC(=O)O[C@@H]1CN2CCC1CC2 (some centres unmarked)
Label: Criterion met

Molecule: CCc1cccc(-c2cc3c(cc2OC)C(NC(=O)O[C@@H]2CN4CCC2CC4)C(C)(C)CO3)c1 (some centres unmarked)
Label: Criterion met

Molecule: CN(C)c1cccc(-c2ccc3c(c2)OCCC3(C)NC(=O)O[C@@H]2CN3CCC2CC3)c1 (some centres unmarked)
Label: Criterion not met

Molecule: CC1(C)COc2cc(-c3ccccc3C(F)(F)F)ccc2C1NC(=O)O[C@@H]1CN2CCC1CC2 (some centres unmarked)
Label: Criterion met

Molecule: CC1(C)COc2cc(-c3cccc4ncccc34)ccc2C1NC(=O)O[C@@H]1CN2CCC1CC2 (some centres unmarked)
Label: Criterion not met

---

Test system: GM1 production in Jurkat cells
Method Description: cells
Assay type: cell-based
Measurement Setup: Homo sapiens, Jurkat, 72 h
Reported IC50 values for the following compounds.

Compound: CC1(C)COc2cc(-c3ccc(C#N)c(F)c3)ccc2C1NC(=O)O[C@@H]1CN2CCC1CC2 (stereo partly shown) [Example 291]
Value Unit: nM
IC50: 8.9
//
Compound: CN(C)c1cc(-c2ccc3c(c2)OCCC3NC(=O)O[C@@H]2CN3CCC2CC3)ccc1F (stereo partly shown) [Example 69]
Value Unit: nM
IC50: 8.93
//
Compound: COc1cc(OC)cc(-c2ccc3c(c2)OCC(C)(C)C3NC(=O)O[C@@H]2CN3CCC2CC3)c1 (stereo partly shown) [Example 114]
Value Unit: nM
IC50: 2.81
//
Compound: CC1(NC(=O)O[C@@H]2CN3CCC2CC3)CCOc2cc(-c3ccccc3C#N)ccc21 (stereo partly shown) [Example 309]
Value Unit: nM
IC50: 37.2
//
Compound: CSc1cccc(-c2ccc3c(c2)SCCC3NC(=O)O[C@@H]2CN3CCC2CC3)c1 (stereo partly shown) [Example 325]
Value Unit: nM
IC50: 6.13
//
Compound: O=C(NC1CCOc2cc(-c3ccc(Cl)c(Cl)c3)ccc21)O[C@@H]1CN2CCC1CC2 (stereo partly shown) [Example 28]
Value Unit: nM
IC50: 24.1
//
Compound: CC1(C)COc2cc(-c3ccc4nonc4c3)ccc2C1NC(=O)O[C@@H]1CN2CCC1CC2 (stereo partly shown) [Example 220]
Value Unit: nM
IC50: 2.42
//
Compound: CC(C)c1cccc(-c2cc3c(cc2F)C(NC(=O)O[C@@H]2CN4CCC2CC4)C(C)(C)CO3)c1 (stereo partly shown) [Example 339]
Value Unit: nM
IC50: 0.2
//
Compound: CC(C)Oc1ccc(-c2ccc3c(c2)OCCC3NC(=O)O[C@@H]2CN3CCC2CC3)cc1Cl (stereo partly shown) [Example 82]
Value Unit: nM
IC50: 7
//
Compound: CC1(C)COc2cc(-c3cccc(C(F)(F)F)c3)ccc2C1NC(=O)O[C@@H]1CN2CCC1CC2 (stereo partly shown) [Example 104]
Value Unit: nM
IC50: 1.02
//
Compound: COc1cccc(-c2ccc3c(c2)OCCC3NC(=O)O[C@@H]2CN3CCC2CC3)c1Cl (stereo partly shown) [Example 67]
Value Unit: nM
IC50: 11.3
//
Compound: CC1(C)COc2cc(-c3ccc(Cl)cc3Cl)ccc2C1NC(=O)O[C@@H]1CN2CCC1CC2 (stereo partly shown) [Example 230]
Value Unit: nM
IC50: 0.8
//
Compound: CC(C)Oc1ccc(-c2cc3c(cc2F)C(NC(=O)O[C@@H]2CN4CCC2CC4)C(C)(C)CO3)cn1 (stereo partly shown) [Example 348]
Value Unit: nM
IC50: 0.5
//
Compound: COc1cc2c(cc1-c1cccc(C(C)C)c1)OCC(C)(C)C2NC(=O)O[C@@H]1CN2CCC1CC2 (stereo partly shown) [Example 358]
Value Unit: nM
IC50: 2
//
Compound: CC1(C)COc2cc(-c3ccc(F)c(F)c3F)ccc2C1NC(=O)O[C@@H]1CN2CCC1CC2 (stereo partly shown) [Example 217]
Value Unit: nM
IC50: 7.35
//
Compound: O=C(NC1CCOc2cc(-c3cccc(C(F)(F)F)c3)ccc21)O[C@@H]1CN2CCC1CC2 (stereo partly shown) [Example 3]
Value Unit: nM
IC50: 2.13
